System tested: Glycogen synthase kinase-3 beta (Homo sapiens)
Sequence (P49841 whole entry): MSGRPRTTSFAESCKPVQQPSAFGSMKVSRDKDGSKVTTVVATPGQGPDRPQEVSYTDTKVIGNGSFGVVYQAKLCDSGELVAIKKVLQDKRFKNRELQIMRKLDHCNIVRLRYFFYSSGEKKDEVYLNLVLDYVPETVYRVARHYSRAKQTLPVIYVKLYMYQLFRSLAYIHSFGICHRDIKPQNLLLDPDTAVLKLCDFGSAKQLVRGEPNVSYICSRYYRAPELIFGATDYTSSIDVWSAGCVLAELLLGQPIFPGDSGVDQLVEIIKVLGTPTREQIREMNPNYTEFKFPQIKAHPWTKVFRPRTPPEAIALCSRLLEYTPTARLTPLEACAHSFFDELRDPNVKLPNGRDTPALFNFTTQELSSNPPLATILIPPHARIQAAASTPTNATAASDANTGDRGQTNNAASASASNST
Assay comment: Z-lyte Assay
pEC50: −log10 of the molar value.
Measurement kind: pEC50

Compound	Measurement kind	Observed value
Cc1ncc(-c2ccc3cnc(NC(=O)C4CCC(F)(F)CC4)cc3c2)[nH]1 [US10556885, Compound 121]	pEC50	7.28

* * *

System tested: Dual specificity tyrosine-phosphorylation-regulated kinase 1A (Homo sapiens)
Assay comment: Z-lyte Assay

Smiles input	EC50 (nM)
Cc1ncc(-c2ccc3cnc(NC(=O)C4CCC(F)(F)CC4)cc3c2)[nH]1	3.4
